system_tested: Voltage-gated inwardly rectifying potassium channel KCNH2 (Homo sapiens)
test: Human Ether-a-go-go-Related Gene (hERG) channel small molecule antagonists: fluorescence cell-based qHTS assay (AID 1671200);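 also: hERG-expressing U2OS cells given a thallium stimulus after FluxOR II dye loading; % is scaled to controls: 0 for no effect and ±100 for the full control effect; nearly all actives have a fitted effect of over 50% in size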
details: hERG-U2OS cells, FluxOR thallium flux fluorescence; series mostly up to 76.8 µM
Results filed as inconclusive are left out. Activity calls are given as the source filed them. Calls follow the shape of the dose curve; as a rule, active = well fitted inhibition curve with a large enough effect in the repeat runs; inconclusive = weak or mixed curves; inactive = flat fitted curve, though single readings scatter.
experimental_endpoint: activity change, negative = inhibition

Cc1ccccc1C#N | inactive
CCC(C)SSC(C)CC (stereo not drawn) | inactive
Cc1ccc(Br)cc1 | inactive

* * *

test: qHTS assay for small molecule activators of the heat shock response signaling pathway (AID 743210);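 also: HeLa cells with beta-lactamase reporter driven by heat shock elements; % is scaled to controls: 0 for no effect and ±100 for the full control effect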
details: HeLa HSE-bla reporter, beta-lactamase ratio, 5 h; series mostly up to 62.6 µM
Source text: U.S. Tox21 Program National Center for Advancing Translational Sciences [NCATS] NIH Chemical Genomics Center [NCGC] U.S. Environmental Protection Agency [EPA] National Institutes of Environmental Health Sciences [NIEHS] National Toxicology Program [NTP] U.S. Food and Drug Administration [FDA] Tox21 Assay Overview: Various chemicals, environmental and physiological stress conditions may lead to the activation of heat shock response/ unfolded protein response (HSR/UPR). […]
Results filed as inconclusive are left out. The source made the active and inactive calls. Calls follow the shape of the dose curve; as a rule, active = well fitted activation curve with a large enough effect in the signal ratio in the repeat runs, with a control signal flat (not every such curve was filed as active); inconclusive = weak or mixed curves; inactive = flat fitted curve, though single readings scatter; the % refers to the signal ratio.
experimental_endpoint: activation

C[C@@H]1CC[C@@]2(OC1)O[C@H]1C[C@H]3[C@@H]4CC[C@H]5C[C@@H](O)CC[C@]5(C)[C@H]4CC(=O)[C@]3(C)[C@H]1[C@@H]2C | 0.0014% [at 5.95 µM] (inactive)
O=P(O)(O)C(O)(Cc1cccnc1)P(=O)(O)O | inactive
N[C@H]1C(O)O[C@H](CO)[C@@H](O)[C@@H]1O (stereo partly specified) | inactive
CC/C=C/CCCCCCCCCCOC(C)=O | inactive
C=CCN1CCc2nc(N)sc2CC1 | inactive
Cc1cc2c(cc1CC(=O)c1sccc1S(=O)(=O)Nc1onc(C)c1Cl)OCO2 | inactive
COc1cc(C(=O)NC2CCCNC2)cc(OC)c1OC (stereo unspecified) | inactive
C[C@]12C=CC(=O)C=C1[C@@H](F)C[C@@H]1[C@@H]2[C@@H](O)C[C@@]2(C)[C@H]1CC[C@]2(O)C(=O)CO | inactive

Request: # input molecule: CCNC(=O)C(C)OC(=O)Nc1ccccc1 (stereo unspecified) ; wanted: its activation
Result: inactive

Request: Quick one: activation for `O=C(O)Cc1ccccc1Oc1ccc(Cl)cc1Cl` ?
Result: inactive

Request: May I ask what activation has been recorded for `CCOC(=O)CN1CCCC1=O` ?
Result: inactive
